# Target Desc: 5-HT2A receptors (Rattus norvegicus)
# Sequence (P14842 whole entry): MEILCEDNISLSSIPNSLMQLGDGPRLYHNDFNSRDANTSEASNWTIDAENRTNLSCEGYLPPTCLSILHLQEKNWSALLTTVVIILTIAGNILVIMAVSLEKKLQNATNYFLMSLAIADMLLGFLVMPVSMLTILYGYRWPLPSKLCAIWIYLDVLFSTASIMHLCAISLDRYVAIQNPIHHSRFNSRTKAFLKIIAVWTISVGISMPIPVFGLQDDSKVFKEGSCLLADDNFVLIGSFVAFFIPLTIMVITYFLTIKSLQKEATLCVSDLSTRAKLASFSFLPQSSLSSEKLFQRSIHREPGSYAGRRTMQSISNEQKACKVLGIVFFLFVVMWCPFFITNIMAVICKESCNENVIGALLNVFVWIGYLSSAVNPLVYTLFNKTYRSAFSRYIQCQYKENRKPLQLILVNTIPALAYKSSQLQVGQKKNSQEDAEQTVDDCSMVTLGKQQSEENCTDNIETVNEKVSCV
# Test Description: in-vitro affinity to 5-HT2A receptors, displacement of [3H]ketanserine (Example A1)
# Assay type: binding
# Cond: target not given; description names affinity to 5-HT2A receptors; read-out: IC50
# Excerpt: The 5-HT2A receptors are exposed both to [^3H]ketanserine (a substance which is known for its affinity to the receptor) and also to the test compound. The decrease in the affinity of [^3H]ketanserine to the receptor is an indication of the affinity of the test substance to the 5-HT2A receptor.
Criterion: IC50 strictly less than 0.09 µM. Met: t. Not met: f.

{"Compound": "O=C(O)CNCc1cnn(-c2ccc(-c3ccccc3)cc2)c1-c1ccccc1F [(29)]", "Class Name": "f"}
{"Compound": "Fc1ccccc1-c1c(C=CCN2CCOCC2)cnn1-c1ccc(-c2ccccc2)cc1 [(46)]", "Class Name": "t"}

QUERY: Is IC50 of Fc1ccccc1-c1c(CNCCCn2ccnc2)cnn1-c1ccc(-c2ccccc2)cc1 [(152)] strictly below 0.09 µM?
RESULT: f

QUERY: Please indicate whether the reported IC50 of CN1CCC(N(C)Cc2cnn(-c3ccc(-c4ccc(F)cc4)nc3)c2-c2ccccc2F)CC1 [(143)] is strictly below 0.09 µM.
RESULT: f

QUERY: Does the reported IC50 of CN1CCN(Cc2cnn(-c3ccc(-c4ccccc4F)cc3)c2-c2ccccc2F)CC1 [(63)] stay below 0.09 µM?
RESULT: f

QUERY: # strict comparison: is reported IC50 < 0.09 µM? input = c1ccc(-c2ccc(-n3ncc(CNCc4ccncc4)c3-c3ccccc3)cc2)cc1 [(170)]
RESULT: t

QUERY: IC50 strictly < 0.09 µM for this compound? CN(C)CCN(C)Cc1cnn(-c2ccc(-c3ccccc3)nc2)c1-c1ccccc1F [(127)]
RESULT: f

---

# collection of IC50 values tested on 5 HT2C receptor (Homo sapiens, UniProt P28335)
# Sequence (P28335 33-458): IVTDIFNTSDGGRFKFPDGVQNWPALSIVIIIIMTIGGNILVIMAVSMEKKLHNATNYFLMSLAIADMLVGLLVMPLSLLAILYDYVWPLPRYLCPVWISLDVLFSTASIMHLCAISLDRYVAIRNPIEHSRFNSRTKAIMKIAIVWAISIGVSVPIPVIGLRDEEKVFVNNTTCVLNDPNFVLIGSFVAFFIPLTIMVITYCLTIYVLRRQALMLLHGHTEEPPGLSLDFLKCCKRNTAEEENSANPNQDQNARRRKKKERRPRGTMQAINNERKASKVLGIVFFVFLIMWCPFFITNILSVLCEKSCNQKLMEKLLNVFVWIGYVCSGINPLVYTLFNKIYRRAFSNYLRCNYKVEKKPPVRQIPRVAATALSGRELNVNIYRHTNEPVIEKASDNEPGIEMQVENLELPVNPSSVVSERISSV
Please answer using the number first and the unit second.

Worked set:
{"Molecule": "CN1CCCN(Cc2cnn(-c3ccc(-c4ccccc4)cc3)c2-c2ccccc2F)CC1", "Target Desc": "5 HT2C receptor (Homo sapiens, UniProt P28335)", "IC50": "230 nM"}
{"Molecule": "Fc1ccccc1-c1c(CN2CCc3ccccc3C2)cnn1-c1ccc(-c2ccccc2)cc1", "Target Desc": "5 HT2C receptor (Homo sapiens, UniProt P28335)", "IC50": "1000 nM"}
{"Molecule": "Fc1ccccc1-c1c(CNCc2nc3ccccc3[nH]2)cnn1-c1ccc(-c2ccccc2)cc1", "Target Desc": "5 HT2C receptor (Homo sapiens, UniProt P28335)", "IC50": "1000 nM"}
{"Molecule": "CCN1CCN(CCc2cnn(-c3ccc(-c4ccc(F)cc4)cc3)c2-c2ccccc2F)CC1", "Target Desc": "5 HT2C receptor (Homo sapiens, UniProt P28335)", "IC50": "1300 nM"}

QUERY: Using the record for "CN(CCO)Cc1cnn(-c2ccc(-c3ccccc3)cc2)c1-c1ccccc1F" , report its IC50.
RESULT: 1000 nM

QUERY: // returns reported IC50 for input "CN1CCN(CCc2cnn(-c3ccc(-c4ccc(F)cc4)cc3)c2-c2ccccc2F)CC1"
RESULT: 730 nM

QUERY: Which value of IC50 has been reported for "Cc1ccc(-c2ccc(-n3ncc(CN4CCN(C)CC4)c3-c3ccccc3F)cc2)cc1" in the records?
RESULT: 960 nM
